Target: T1, human amylin 3(a) receptor (human calcitonin receptor co-expressed with RAMP-3) (human, UniProt P30988 25-474; O60896 24-148, limits assumed)
T1 sequence (looked up) 1: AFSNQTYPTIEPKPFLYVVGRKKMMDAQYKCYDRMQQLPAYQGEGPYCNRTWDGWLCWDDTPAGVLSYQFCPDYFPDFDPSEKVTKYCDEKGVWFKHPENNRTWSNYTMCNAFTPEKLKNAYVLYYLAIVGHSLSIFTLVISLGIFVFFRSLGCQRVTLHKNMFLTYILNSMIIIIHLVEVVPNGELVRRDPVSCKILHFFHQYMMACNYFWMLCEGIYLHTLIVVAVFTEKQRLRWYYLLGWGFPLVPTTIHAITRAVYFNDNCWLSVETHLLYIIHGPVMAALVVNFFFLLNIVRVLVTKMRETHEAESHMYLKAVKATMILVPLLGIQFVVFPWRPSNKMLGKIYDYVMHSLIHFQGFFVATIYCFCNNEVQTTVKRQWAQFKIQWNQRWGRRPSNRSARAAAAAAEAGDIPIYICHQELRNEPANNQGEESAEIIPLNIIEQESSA
T1 sequence (looked up) 2: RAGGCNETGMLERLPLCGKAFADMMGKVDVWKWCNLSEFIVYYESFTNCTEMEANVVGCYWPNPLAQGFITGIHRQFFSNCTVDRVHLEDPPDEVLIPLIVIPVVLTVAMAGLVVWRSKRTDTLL
Test: cell-based or functional assay
Numbered stars: 1 amine (or outer) side, 2 acyl side, 3 side chain; on linkers, the order of the positions; unused ones are H or OH. Side chains are listed from the residue outwards. Ends that are not written are not given here. * marks the point of attachment. C20 diacid = O=C(O)CCCCCCCCCCCCCCCCCCC(=O)*; C18 diacid = O=C(O)CCCCCCCCCCCCCCCCC(=O)*; C16 diacid = O=C(O)CCCCCCCCCCCCCCC(=O)*; γGlu = O=C(O)[C@H](CCC(=O)[*:2])N[*:1]; C14 diacid = O=C(O)CCCCCCCCCCCCC(=O)*; C12 diacid = O=C(O)CCCCCCCCCCC(=O)*; AEEA = NCCOCCOCC(=O)O
Each record's class is read off its hAmylin-R funct. EC50 (pM) using these ranges: category 1 (below 20 pM), category 2 (20 pM to below 40 pM), category 3 (40 pM or more)

Reference set (3 entries):
BINDER: {C16 diacid}-ASELSTAALGRLSAELHELATLPRTETGSGSP-NH2 [[N-terminal(C16 diacid), des1, 30S, 31G]mimylin]
CLASS LABEL: category 1

BINDER: {C12 diacid}-EASELSTAALGRLSAELHELATLPRTETGPESP-NH2 [[N-terminal(C12 diacid)]mimylin]
CLASS LABEL: category 2

BINDER: ASEVSTAVLGRLSAELHELATLPRTETGSGSP-NH2 [[des1, 5V, 9V, 30S, 31G]mimylin]
CLASS LABEL: category 1

For this binder, which bin applies? {C14 diacid}-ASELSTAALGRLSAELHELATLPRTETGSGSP-NH2 [[N-terminal(C14 diacid), des1, 30S, 31G]mimylin] category 1

For this binder, which bin applies? ASELTTAVLGRLEAELHELTTLPRTETGTGTP-NH2 [[des1, 6T, 9V, 14E, 21T, 30T, 31G, 32T]mimylin] category 3

For this binder, which bin applies? {C20 diacid-γGlu-AEEA-AEEA-AEEA-AEEA-AEEA}-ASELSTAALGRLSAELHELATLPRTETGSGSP-NH2 [[N-terminal(C20 diacid-gGlu-5xOEG), des1, 30S, 31G]mimylin] category 1

For this binder, which bin applies? {C18 diacid-γGlu}-ASEVSTAVLGRLSAELHELATLPRTETGSGSP-NH2 [[N-terminal(C18 diacid-gGlu), des1, 5V, 9V, 30S, 31G]mimylin] category 2

For this binder, which bin applies? Ac-ASK([γGlu-C20 diacid])LSTAALGRLSAELHELATLPRTETGSGSP-NH2 [[N-terminal(acetyl), des1, 4K(C20 diacid-gGlu), 30S, 31G]mimylin] category 2

For this binder, which bin applies? {C18 diacid-γGlu}-ASELTTAVLGRLSAELHELATLPRTETGSGTP-NH2 [[N-terminal(C18 diacid-gGlu), des1, 6T, 9V, 30S, 31G, 32T]mimylin] category 3
